Below is a list of entries, each paired with its recorded inhibition value.
target: Glucose transporter (Leishmania mexicana) (UniProt O61059)
assay.protocol: ST_JUDE_LEISH: Cytotoxicity at 2uM final concentration against transgenic Leishmania Mexicana promastigotes LmGT2 that are glucose transport deficient and complemented with the L. Mexicana glucose transporter 2. Activity is measured by DNA content using SYBR green in vitro
Assay type: functional
Please state the figure in %; there is no need to write the unit.

[[record]]
compound_smiles = "O=C1CCCN1CCCNCc1ccc(-c2ccc(-c3nc4cc(F)ccc4[nH]3)s2)cc1"
endpoint_value = 6.85

[[record]]
compound_smiles = "O=C(N[C@H]1CCN(Cc2ccc(OCCN3CCNCC3)c(Br)c2)C1)c1ccc(Cl)c(Cl)c1"
endpoint_value = 1.51

[[record]]
compound_smiles = "O=C(C=Cc1ccc(Cl)c(Cl)c1)NCCCCCN1CCC(CCNC(=O)c2sc3ccccc3c2Cl)CC1"
endpoint_value = 8.75

[[record]]
compound_smiles = "COc1nc2c(N3CCN(CCNCc4ccc5c(n4)NC(=O)CO5)CC3)ccnc2cc1F"
endpoint_value = 0.39


Query: inhibition; subject: COc1ccccc1-c1ccc2nnc(SCC(=O)Nc3ccc4c(c3)OCCO4)n2n1 3.67

* * *

target: Glucose transporter (Leishmania mexicana) (UniProt O61059)
assay.protocol: ST_JUDE_LEISH: Cytotoxicity at 2uM final concentration against transgenic Leishmania Mexicana promastigotes LmGT2 that are glucose transport deficient and complemented with the L. Mexicana glucose transporter 2. Activity is measured by DNA content using SYBR green in vitro
Format: functional
Below is a list of entries, each paired with its recorded inhibition value.
Please state the figure in %; there is no need to write the unit.

[[record]]
compound = "CCCOC(=O)C1=C(C)NC2=C(C(=O)CC(c3ccc(OC)c(OC)c3)C2)C1c1cccc(O)c1 (centres undefined)"
endpoint_value = 8.46


// map Cc1cc(N(C)C)nc(Nc2ccc(NC(=O)c3c(F)cccc3F)cc2)n1 to recorded inhibition (system: Glucose transporter (Leishmania mexicana) (UniProt O61059)) -2.85

What do you get for O=C(Nc1ccc(Cl)cc1)Nc1ccc(-c2cccc(-c3nc4ccccc4[nH]3)c2)cc1 ? -1.97

What do you get for c1ccc(C2=NN=C(c3ccccn3)C3C4CC(C23)C2C3CC(c5ccccc53)C42)nc1 (centres undefined) ? 1.22

What do you get for COc1ccc2nc(N3CCN(C(=O)OC(C)(C)C)CC3)nc(NCCCc3ccccc3)c2c1 ? 8.03

What do you get for CN1CCC(NCc2cccc(-c3ccc(S(=O)(=O)NCc4ccccc4)c(F)c3)c2)CC1 ? 4.35

What do you get for CCOc1ccc(Br)cc1/C=C/C(=O)Nc1ccc2c(c1)CN(C)CCC2 ? 4.34

What do you get for N#Cc1cccc(C(=O)NC2CCN(CCCCCNC(=O)/C=C/c3ccc(Cl)c(Cl)c3)CC2)c1 ? 7.61

What do you get for O=c1ccc2ccc(F)c3c2n1CC3CN1CCC(NCc2ccc(-c3cccc(Cl)c3)nc2)CC1 (centres undefined) ? 14.9

* * *

target: Hexose transporter 1 (Plasmodium falciparum)
assay.protocol: ST_JUDE_LEISH: Cytotoxicity at 2uM final concentration against transgenic Leishmania Mexicana promastigotes LmPfHT that are glucose transport deficient and complemented with the Plasmodium falciparum hexose transporter. Activity is measured by DNA content using SYBR green in vitro
Format: functional
quantity.name: inhibition (%)
Please state the figure in %; there is no need to write the unit.

Example cases with answers are listed next.
[[record]]
compound = "CN1CCN(CCCCCCNc2c3ccccc3nc3ccccc23)CC1"
endpoint_value = 19.4

[[record]]
compound = "Cc1cc(Cl)ccc1OC(C)C(=O)N1CCc2ccccc21 (stereo not given)"
endpoint_value = 0.81

[[record]]
compound = "Cn1nc(-c2cccc(CNC3CCc4ccccc43)c2)c2cnc(NCCCN3CCCC3)nc21 (stereo not given)"
endpoint_value = 32.6


Query: inhibition; subject: CC(CON1C(N)=NC(N)=NC1(C)C)Cc1ccc(Cl)cc1Cl (stereo not given) -1.29

What do you get for Oc1nc(Cc2ccccc2)nc2ccc(Cl)cc12 ? 2.54

What do you get for CN1CCN(c2cccc(-c3nnc(-c4ccc(OCC(=O)NCc5cccc(C(F)(F)F)c5)c([N+](=O)[O-])c4)o3)c2)CC1 ? 8.11

What do you get for O=C(CCCCCNC(=O)c1ccc(O)c(-c2ccc(Cl)c(Cl)c2)c1)NC1CCCCCC1 ? 3.51

What do you get for CCOc1ccc(C=CC(=O)Nc2ccc3nc(N4CCN(C)CC4)cc(C)c3c2)cc1OC ? 3.77

What do you get for c1cc(-c2ccc(CN3CCCCC3)cc2)cc(-c2nc3ccccc3[nH]2)c1 ? 0.49

What do you get for NCCCNc1nccc(N2CCc3ncnc(Nc4ccc(OCc5cccc(F)c5)c(Cl)c4)c3C2)n1 ? 4.48

What do you get for CCOC(=O)c1ccc(NC(=O)N(Cc2ccc(-c3cccc(CN4CCNCC4)c3)cc2)C2CCN(Cc3ccccc3)CC2)cc1 ? 1.96

What do you get for COc1cccc(CNC(=O)NC2CCN(c3ccnc(Nc4ccc(F)cc4)n3)C2)c1 (stereo not given) ? -0.35

What do you get for O=C(Nc1cccc(-c2cc3ccccc3[nH]2)c1)C1CCN(Cc2ccccc2O)CC1 ? 9.31

What do you get for O=c1cc(NCCCNCc2[nH]c3cc(Cl)cc(Cl)c3c2Cn2cccn2)[nH]c2ccccc12 ? -1.31

What do you get for COc1cc(C(C)C)ccc1C1CCN(CCCCNC(=O)c2ccc(NC(=O)c3ccc(Cl)cc3)cc2)CC1 ? 6.6

* * *

target: Glucose transporter (Leishmania mexicana) (UniProt O61059)
assay.protocol: ST_JUDE_LEISH: Cytotoxicity at 2uM final concentration against transgenic Leishmania Mexicana promastigotes LmGT2 that are glucose transport deficient and complemented with the L. Mexicana glucose transporter 2. Activity is measured by DNA content using SYBR green in vitro
Format: functional
quantity.name: inhibition (%)
Please state the figure in %; there is no need to write the unit.

[[record]]
molecule = "COc1ccc2nccc([C@H](O)CN3CCC(NCc4nc5cccc(F)c5[nH]4)CC3)c2c1"
quantity_name = "inhibition"
measure_unit = "%"
endpoint_value = 2.36

[[record]]
molecule = "COc1cc(Cc2cnc(N)nc2N)cc(OC)c1OCCNC(=O)[C@@H](N)CCC(=O)O"
quantity_name = "inhibition"
measure_unit = "%"
endpoint_value = 0.12

[[record]]
molecule = "CN(C)CCNCc1ccc(-c2ccc3c(Nc4ccc(Oc5ccccc5)cc4)ccnc3c2)o1"
quantity_name = "inhibition"
measure_unit = "%"
endpoint_value = -0.02


Query: inhibition; subject: Cn1nc(-c2ccc(CNC3CCc4ccccc43)cc2)c2cnc(NCCN3CCCC3)nc21 (centres undefined) 0.03

What do you get for O=C(/C=C/c1ccc(Cl)c(Cl)c1)NCCCCCN1CCC(NC(=O)c2ccc(F)c(F)c2)CC1 ? 6.18

What do you get for COc1ccccc1CCNc1nc(C)cc(N[C@@H](Cc2ccccc2)C(=O)NCCCOC(C)C)n1 ? -0.1

* * *

target: Glucose transporter (Leishmania mexicana)
assay.protocol: ST_JUDE_LEISH: Cytotoxicity at 2uM final concentration against transgenic Leishmania Mexicana promastigotes LmGT2 that are glucose transport deficient and complemented with the L. Mexicana glucose transporter 2. Activity is measured by DNA content using SYBR green in vitro
Format: functional
quantity.name: inhibition (%)
Please state the figure in %; there is no need to write the unit.

[[record]]
molecule = "CCC(C)NC(=O)CN1CN(c2ccccc2)C2(CCN(C(=O)c3ccc(C(C)(C)C)cc3)CC2)C1=O (stereo not drawn)"
endpoint_value = 1.7


Query: inhibition; subject: COc1ccc(-c2cc3ncnc(N4CCN(CCN5CCCC5)CC4)c3s2)cc1 0.9

What do you get for O=C(NCC1CCC(CNCCCc2ccccc2)CC1)c1cc(Cl)cc(Cl)c1 (stereo not drawn) ? 1.72

* * *

target: Glucose transporter (Leishmania mexicana) (UniProt O61059)
assay.protocol: ST_JUDE_LEISH: Cytotoxicity at 2uM final concentration against transgenic Leishmania Mexicana promastigotes LmGT2 that are glucose transport deficient and complemented with the L. Mexicana glucose transporter 2. Activity is measured by DNA content using SYBR green in vitro
Format: functional
Assign Satisfied whenever inhibition does not fall below 4%; assign Not satisfied whenever it does.

The examples below pair each entry with its known result.
[[record]]
compound_smiles = "CC(=O)NCCNc1nccc(N2CCc3ncnc(Nc4ccc(OCc5ccccn5)c(Cl)c4)c3C2)n1"
target = "Glucose transporter (Leishmania mexicana) (UniProt O61059)"
category_label = "Not satisfied"

[[record]]
compound_smiles = "COc1ccc(CNCc2ccccc2)cc1-c1ccc(S(=O)(=O)NCCN2CCCC2)c(C)c1"
target = "Glucose transporter (Leishmania mexicana) (UniProt O61059)"
category_label = "Not satisfied"

[[record]]
compound_smiles = "CCCCCN1CCCN(Cc2cccc(NC(=O)c3cc4ccccc4s3)c2)CC1"
target = "Glucose transporter (Leishmania mexicana) (UniProt O61059)"
category_label = "Not satisfied"


Kindly consider the entry below.
Record Cc1nnc2c(N(C(=O)NCCc3ccccc3)C(=O)NCCc3ccccc3)cc3cc(Cl)ccc3n12 ; criterion: inhibition no lower than 4%. Met? Satisfied
